Hey, just so you know, these numbers are from ChEMBL document CHEMBL1136643.

# collection of pKi values tested on 5-hydroxytryptamine receptor 2A (Homo sapiens)
# Sequence (P28223 whole entry): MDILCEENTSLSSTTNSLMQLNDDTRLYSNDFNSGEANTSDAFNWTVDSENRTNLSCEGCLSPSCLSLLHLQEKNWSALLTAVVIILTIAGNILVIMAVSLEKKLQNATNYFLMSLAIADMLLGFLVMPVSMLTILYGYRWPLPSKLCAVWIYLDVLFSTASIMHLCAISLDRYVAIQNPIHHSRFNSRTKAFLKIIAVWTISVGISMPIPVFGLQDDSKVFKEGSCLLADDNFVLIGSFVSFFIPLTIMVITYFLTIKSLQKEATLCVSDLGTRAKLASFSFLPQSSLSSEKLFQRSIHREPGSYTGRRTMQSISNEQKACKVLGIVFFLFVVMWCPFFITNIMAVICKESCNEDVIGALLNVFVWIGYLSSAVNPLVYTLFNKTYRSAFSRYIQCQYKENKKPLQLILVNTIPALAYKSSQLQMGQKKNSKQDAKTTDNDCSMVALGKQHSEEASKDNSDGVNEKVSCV
By convention, pKi is the negative base-10 log of a molar concentration.

Recorded results for 5 molecules are shown here.
{"columns": ["Smiles Code", "Quantity Name", "Reading"],
 "data": [
  ["O=C1c2ccccc2CCCN1CCN1CCC(n2nnc3cc(F)ccc32)CC1", "pKi", 7.31],
  ["O=C(c1ccc(F)cc1)C1CCN(CCN2CCCc3ccccc3C2=O)CC1", "pKi", 7.77],
  ["Cc1ccc(OC2CCN(CCN3CCCc4ccccc4C3=O)CC2)cc1", "pKi", 7.26],
  ["O=C1c2ccccc2CCCN1CCN1CCC(n2nnc3ccccc32)CC1", "pKi", 6.57],
  ["O=C1c2ccccc2CCCN1CCN1CCC(c2c[nH]c3ccccc23)CC1", "pKi", 8.77]
]}

Alright, here's another molecule for you.
Prompt line: Entry `O=C1c2ccccc2CCCN1CCN1CCC(n2ccc3cc(F)ccc32)CC1` needs its pKi filled in; supply it.
Response line: 8.16

---

Experimental System: Cytochrome P450 2C19 (Homo sapiens)
Sequence (P33261 whole entry): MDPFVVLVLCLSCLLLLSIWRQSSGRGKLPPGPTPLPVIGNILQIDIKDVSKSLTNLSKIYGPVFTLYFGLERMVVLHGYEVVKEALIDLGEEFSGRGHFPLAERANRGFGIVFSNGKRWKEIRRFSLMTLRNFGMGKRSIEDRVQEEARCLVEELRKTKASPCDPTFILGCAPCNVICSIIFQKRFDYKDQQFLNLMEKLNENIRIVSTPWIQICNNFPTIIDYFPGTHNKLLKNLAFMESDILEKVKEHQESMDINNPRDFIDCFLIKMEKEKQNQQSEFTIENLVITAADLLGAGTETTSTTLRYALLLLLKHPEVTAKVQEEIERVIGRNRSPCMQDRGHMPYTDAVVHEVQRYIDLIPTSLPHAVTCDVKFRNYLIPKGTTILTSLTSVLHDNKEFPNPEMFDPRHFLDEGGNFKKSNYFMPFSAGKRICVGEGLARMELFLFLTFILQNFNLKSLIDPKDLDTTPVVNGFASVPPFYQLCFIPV
pIC50: −log10 of the molar value.
Quantity Name: pIC50

Prompt line: Find the measured pIC50 of `O=C1c2ccccc2CCCN1CCN1CCC(n2c(=O)[nH]c3cc(F)ccc32)CC1` with Cytochrome P450 2C19 (Homo sapiens) as test system.
Response line: < 4.00

---

Experimental System: Cytochrome P450 2D6 (Homo sapiens)
Sequence (P10635 whole entry): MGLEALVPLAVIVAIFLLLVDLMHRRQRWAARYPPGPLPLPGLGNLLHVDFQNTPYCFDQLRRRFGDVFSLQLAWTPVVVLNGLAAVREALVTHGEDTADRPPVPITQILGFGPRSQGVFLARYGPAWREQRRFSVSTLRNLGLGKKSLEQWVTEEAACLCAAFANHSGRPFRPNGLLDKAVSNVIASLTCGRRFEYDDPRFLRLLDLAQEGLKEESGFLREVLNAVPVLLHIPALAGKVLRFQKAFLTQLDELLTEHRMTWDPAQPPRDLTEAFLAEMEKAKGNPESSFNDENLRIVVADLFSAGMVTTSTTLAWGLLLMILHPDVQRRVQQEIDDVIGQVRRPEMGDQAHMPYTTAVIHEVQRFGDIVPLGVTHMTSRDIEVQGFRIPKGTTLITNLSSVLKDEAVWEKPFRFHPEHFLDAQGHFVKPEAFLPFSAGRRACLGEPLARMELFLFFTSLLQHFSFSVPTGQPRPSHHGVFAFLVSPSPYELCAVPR
Quantity Name: IC50 (µM)
Value expressed in µM; do not type the unit.

Prompt line: Entry `O=C1c2ccccc2CCCN1CCN1CCC(n2c(=O)[nH]c3cc(F)ccc32)CC1` needs its IC50 filled in; supply it.
Response line: 10

---

Experimental System: D(3) dopamine receptor (Homo sapiens)
Sequence (P35462 whole entry): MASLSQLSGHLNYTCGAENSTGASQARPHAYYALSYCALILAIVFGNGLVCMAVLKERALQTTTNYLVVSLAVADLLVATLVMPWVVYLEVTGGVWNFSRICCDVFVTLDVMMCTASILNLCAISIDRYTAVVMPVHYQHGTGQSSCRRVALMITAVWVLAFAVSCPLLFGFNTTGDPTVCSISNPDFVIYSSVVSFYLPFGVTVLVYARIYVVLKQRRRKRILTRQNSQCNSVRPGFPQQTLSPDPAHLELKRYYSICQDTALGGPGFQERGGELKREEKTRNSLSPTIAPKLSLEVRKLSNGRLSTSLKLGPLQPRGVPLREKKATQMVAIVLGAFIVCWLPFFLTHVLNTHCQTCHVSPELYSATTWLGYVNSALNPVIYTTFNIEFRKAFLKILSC
Quantity Name: Ki (nM)
Value expressed in nM; do not type the unit.

Prompt line: Find the measured Ki of `O=C1c2ccccc2CCCN1CCN1CCC(n2c(=O)[nH]c3cc(F)ccc32)CC1` with D(3) dopamine receptor (Homo sapiens) as test system.
Response line: 1700

---

Experimental System: Cytochrome P450 2C9 (Homo sapiens, UniProt P11712)
Sequence (P11712 whole entry, canonical isoform): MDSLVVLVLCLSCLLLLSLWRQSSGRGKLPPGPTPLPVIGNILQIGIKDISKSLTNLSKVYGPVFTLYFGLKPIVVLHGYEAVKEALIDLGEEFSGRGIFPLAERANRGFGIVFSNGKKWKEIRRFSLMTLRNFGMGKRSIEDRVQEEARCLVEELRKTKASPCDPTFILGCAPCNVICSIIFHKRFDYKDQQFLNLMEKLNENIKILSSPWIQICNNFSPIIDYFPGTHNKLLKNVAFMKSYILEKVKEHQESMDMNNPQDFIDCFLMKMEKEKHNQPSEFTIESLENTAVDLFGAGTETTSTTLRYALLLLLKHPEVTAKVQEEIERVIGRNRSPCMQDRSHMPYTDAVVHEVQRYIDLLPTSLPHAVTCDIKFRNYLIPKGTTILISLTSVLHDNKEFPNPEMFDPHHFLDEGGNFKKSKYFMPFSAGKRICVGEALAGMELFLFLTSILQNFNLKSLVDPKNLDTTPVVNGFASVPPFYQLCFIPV
Method Notes: Inhibition of human cytochrome P450 isoform 2C9
Quantity Name: IC50 (µM)
Value expressed in µM; do not type the unit.

Prompt line: Entry `O=C1c2ccccc2CCCN1CCN1CCC(n2c(=O)[nH]c3cc(F)ccc32)CC1` needs its IC50 filled in; supply it.
Response line: 35

---

Experimental System: 5-hydroxytryptamine receptor 1B (Homo sapiens, UniProt P28222)
Sequence (P28222 whole entry): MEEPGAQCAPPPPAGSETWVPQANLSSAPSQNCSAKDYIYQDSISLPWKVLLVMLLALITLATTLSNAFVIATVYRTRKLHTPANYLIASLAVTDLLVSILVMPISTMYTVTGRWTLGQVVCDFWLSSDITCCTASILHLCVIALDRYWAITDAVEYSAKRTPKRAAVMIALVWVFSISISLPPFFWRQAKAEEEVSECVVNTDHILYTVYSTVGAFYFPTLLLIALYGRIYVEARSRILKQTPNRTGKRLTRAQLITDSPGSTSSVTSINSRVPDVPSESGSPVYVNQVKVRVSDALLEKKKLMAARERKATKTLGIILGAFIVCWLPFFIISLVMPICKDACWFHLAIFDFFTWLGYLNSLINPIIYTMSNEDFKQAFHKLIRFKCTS
pKi: −log10 of the molar value.
Quantity Name: pKi

Prompt line: Find the measured pKi of `O=C1c2ccccc2CCCN1CCN1CCC(n2c(=O)[nH]c3cc(F)ccc32)CC1` with 5-hydroxytryptamine receptor 1B (Homo sapiens, UniProt P28222) as test system.
Response line: < 5.40

---

Experimental System: UniProt:P08684
Sequence (P08684 whole entry): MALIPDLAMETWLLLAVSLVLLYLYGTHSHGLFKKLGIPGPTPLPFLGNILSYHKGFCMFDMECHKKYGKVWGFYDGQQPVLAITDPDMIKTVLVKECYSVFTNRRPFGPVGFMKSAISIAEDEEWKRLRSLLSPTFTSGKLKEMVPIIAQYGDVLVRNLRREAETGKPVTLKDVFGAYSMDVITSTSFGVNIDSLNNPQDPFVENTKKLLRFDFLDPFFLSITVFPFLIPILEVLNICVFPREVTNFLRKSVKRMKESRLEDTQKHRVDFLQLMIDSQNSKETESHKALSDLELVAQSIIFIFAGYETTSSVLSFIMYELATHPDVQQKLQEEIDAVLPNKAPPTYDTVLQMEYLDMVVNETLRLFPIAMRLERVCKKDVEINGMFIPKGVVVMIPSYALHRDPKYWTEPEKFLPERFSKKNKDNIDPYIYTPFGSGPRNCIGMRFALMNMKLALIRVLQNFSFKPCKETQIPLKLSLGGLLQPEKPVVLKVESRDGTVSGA
Method Notes: Inhibition of human Cytochrome P450 3A4
Type: ADME
pIC50: −log10 of the molar value.
Quantity Name: pIC50

Prompt line: Entry `O=C1c2ccccc2CCCN1CCN1CCC(n2c(=O)[nH]c3cc(F)ccc32)CC1` needs its pIC50 filled in; supply it.
Response line: < 4.00

---

# collection of pKi values tested on 5-hydroxytryptamine receptor 7 (Homo sapiens, UniProt P34969)
# Sequence (P34969 whole entry): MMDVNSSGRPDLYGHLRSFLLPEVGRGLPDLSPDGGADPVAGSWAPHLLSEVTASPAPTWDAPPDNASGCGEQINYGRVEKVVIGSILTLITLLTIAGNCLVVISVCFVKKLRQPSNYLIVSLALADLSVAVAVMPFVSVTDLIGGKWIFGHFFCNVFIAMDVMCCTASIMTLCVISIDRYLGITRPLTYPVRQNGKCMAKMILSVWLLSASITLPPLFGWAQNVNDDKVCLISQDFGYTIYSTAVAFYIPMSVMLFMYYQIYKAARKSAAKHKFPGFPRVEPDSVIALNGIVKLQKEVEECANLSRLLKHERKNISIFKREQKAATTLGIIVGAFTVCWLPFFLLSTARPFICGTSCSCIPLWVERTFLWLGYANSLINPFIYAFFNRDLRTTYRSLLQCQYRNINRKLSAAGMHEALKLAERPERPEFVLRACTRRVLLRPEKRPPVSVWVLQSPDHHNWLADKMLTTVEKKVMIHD
By convention, pKi is the negative base-10 log of a molar concentration.

Recorded results for 5 compounds are shown here.
{"columns": ["Compound", "pKi"],
 "data": [
  ["O=C1c2ccccc2CCCN1CCN1CCC(n2c(=O)oc3ccccc32)CC1", 7.56],
  ["O=C1c2ccccc2CCCN1CCN1CCC(n2nnc3cc(F)ccc32)CC1", 8.69],
  ["O=C(c1ccc(F)cc1)C1CCN(CCN2CCCc3ccccc3C2=O)CC1", 8.78],
  ["O=C1c2ccccc2CCCN1CCN1CCC(Oc2ccccc2)CC1", 7.69],
  ["O=C1c2ccccc2CCCN1CCN1CCC(n2nnc3ccccc32)CC1", 7.85]
]}

Prompt line: Find the measured pKi of O=C1CC(CN2CCC(Oc3ccccc3)CC2)CCc2ccccc21 (configuration not stated) with 5-hydroxytryptamine receptor 7 (Homo sapiens, UniProt P34969) as test system.
Response line: 7.73

Prompt line: Find the measured pKi of `Cc1ccc(OC2CCN(CCN3CCCc4ccccc4C3=O)CC2)cc1` with 5-hydroxytryptamine receptor 7 (Homo sapiens, UniProt P34969) as test system.
Response line: 8.04
